- protocol.description: soluble on expression in E. coli; label from the status in PepcDB or PDB records
observation.type: soluble on expression in E. coli

* MSLILYDYFRSTACYRVRIALNLKKIAYEKIEVHLVNNGGEQHSLQYHQINPQELVPSLDINGQILSQSMAIIDYLEEIHPEMPLLPKDPFMKATLKSMALIVACDMHPLNNLRVLNRLKEQFNANEEQVLEWYHHWLKTGFDAFEEKLGALERDKPVCFGSEVGLADVCLIPQVYNAHRFHFDMASYPIINEINEYCLTLPAFHDAAPEAISSEGHHHHHH | soluble
* MAPHGDGLSDIEEPEVDAQSEILRPISSVVFVIAMQAEALPLVNKFGLSETTDSPLGKGLPWVLYHGVHKDLRINVVCPGRDAALGIDSVGTVPASLITFASIQALKPDIIINAGTCGGFKVKGANIGDVFLVSDVVFHDRRIPIPMFDLYGVGLRQAFSTPNLLKELNLKIGRLSTGDSLDMSTQDETLIIANDATLKDMEGAAVAYVADLLKIPVVFLKAVTDLVDGDKPTAEEFLQNLTVVTAALEGTATKVINFINGRNLSDL | soluble

---

- protocol.description: soluble on expression in E. coli; label from the status in PepcDB or PDB records
observation.type: soluble on expression in E. coli

• MRLAVLIDADNAKADAISDLLAEVSKFGVATVKRAYGDWTTTNLQGWKKQLHKYAIQPMQQFSYTRGKNSTDASMIIDGMDLLYTGNFDGFCIVSSDCDFTRLATRFREAGLSVYGFGEKKTPEPFVAACDRFIFTEILGKGETQEKPAATGKADESAASKELLKLLRKAVAAVSGEDGWASLSNLGSHISKIRPSFDSRNYGYSKLSTLVKNLDIFETRMVPSADKLHTDVFLRLKDGKLEHHHHHH = not soluble
• MSMPKCEICNDDYSSEDGDHSPRNLKCSHTLCEGCIKKMLGNSKIVCPFCREPTDMPGNKMESLHKNFALIQAIQLFAKTTKITEVEEPMLEKCKHHPDYLVETVCVEEDCSESGKYMCRKCVSTLSHLHHTKKSLIAEMEKSRELLQGRINRLNKTIGEIDQDVRKLRMSQIAFREGGNNYQQKANEITTFYSRIREMVNEREKEALVKLKEVAKSILDENDSALPPLLRSHQKLTEYVRKATEAKKRNNAIACITAAEDLLNKTKDCCDEEYYTIESQDINVCIKPIDIPVATITRK = not soluble
• MNRIIDMRCRPPLPEFREYFDIPRITWHGARTGAKQVSRAFVEGSMDLFFEEMDQAGIEIAVVQGRNSPAVFMGKQFNAAFIPNERLAQIQDQYAGRFVCFAGIDVSNTAHNAVEETVRSIKSLGLKGIFIEPGRQIQSTPDDERIFPVYEKCIELDIPVNLMSGPYAGADIGVSDPLYVDRLCTRYPELKIILGHGGYPYVQQILGVAFKHTNLFVSPDMYVFAPGGQAYIDAANGALRDQMVYGSAYPLRPVTQTVSDTLGLGLSADSERAYLELNARKLLNIAAALEHHHHHH = not soluble

---

- protocol.description: soluble on expression in E. coli; label from the status in PepcDB or PDB records
observation.type: soluble on expression in E. coli

* GPGSGRYREGVEDCTKTLQIDKEFYKAYARRARCHEHLGDHFAAVRDFKKAIEYDSTDRELARELRAAEQNLAKEAEKERDFYFQLGVSRTATEREIKLKYRELSLRWHPDKCIGLDEVERERAEHKFKIISEAYATLVDAGKRREYDAKQDRERFTRAGGFNFSSTYSGGNANDYYRGRHRAGGNGFW | soluble
* GPGSAEKKQKQHFYLTQEMPPRRDPERQRAKVAAATMAPSEHKKASLPPAKLRLNLGPFLPQKKKNRPPKTTEIDWGSEQTPRLQCSWHPQRRNGIVSFPVMMSYPVSCHCAAWGCHITRAYPTMTRQGAHRLASPKVGRPRRSTRKPDQK | soluble
* MSERDAIRAFSHMLETIFVRMRAEGTGSQTDAMQRWLDLYNVGSLPIDKKSYKALRLMDRETTDQQKEDATCAICLDNLQNNVDIPEDHVIKEELKIDPTTFGTTVIVMPCKHRFHYFCLTLWLEAQQTCPTCRQKVKTDKEVEEEERQRNLEELHDSMYG | not soluble
* MADSIASIGNRYIDNNDTDMHFLRTWAVRRCQHTDWDICERIRLGELKEARDRAAQMEKTMRWWSSCTADWRNRWSAVRDERNRAREEAETLRLNYDLLLEEKRFLAEQLYHVDSESDEPKLEISQKPEIDGTKRNAVVQTIHSISCDPPSILVKSYSAAQIEAVLREPSVDEPPVETTKSDINEELKAENEFLKDQANELNKCREKIETDGKTIQDLRLRIQSMERELMAAKNSKRASSS | not soluble
* MGSDKIHHHHHHMDGINTLRYSDLFLAMYFDGGKSCLHRNHSHVLVYVYSGEMVIDEKGQITRLHKGECAFIRKDFSVQMTKQAWNGEQFKAIFLMFTMKFLRDFYSKLDRNTLPKDAKRDQVSLYKLPSNRPDIVSLFESMTPYFNSKIQPTDELLQLKMVEGVYVLLNTDKNLYASIFDFTDPWKIDILEFMERNYMNDISMEEIANYTGRSLSTFKRDFKKCSALSPREWLIRRRLEAAHGLIRKGGRKVSEICFEVGFKNLSHFSKIYKIAYGVPPTEDI | not soluble
* MDAIITGESERIGLSVIDNNDVEHLIETNESGEITYHEQDGYPDDSSKRTDEGNEYVNQARKYAKYYVYLKRGYDTVSAPENPVRIDAVRQAIAQMDLETFETHFGDLYQQFSSETDGSAEPVYDVPPQATTPPIYAQNVYLGIDPLETDLGDELAAKHDLDITAESAADVAIADLSTEEIKQWGEFTGEFATRAIEEQIDLSDAVYIDNTSQLYVKHPEGTDLVAADDHLEPTSREPDTVIELLPIELESLEYFQSFMDHYLRCQIRDVFIEMGVVPPEEFRVLGLGQFMAAHCYSYIDFYPEFHNPESGAFTQQTSLF | not soluble
* MNRSDKWQQRVAQVAYRFNQQYQNQSLELPAEVQEMPIYREWISGILAGKIASPFWEMAQPQKNQHCLDIGCGVSFLIYPWRDWQAFFYGQDVSNVARDTLNSRGSQLNSKLFKGVELGAAHQLKYTLSYFDLAIATGFSCYFPLEYWTSVLQAVKRVLKPDGHFVFDILNAAHPQAEDWAVLETYLGAEVFLEPVTEWEKIINAAGAKVVGRQPGEFFDLYKLRLEHHHHHH | not soluble

---

- protocol.description: soluble on expression in E. coli; label from the status in PepcDB or PDB records
observation.type: soluble on expression in E. coli

* MHHHHHHSSGRENLYFQGIPTISELKKDRIIPHVFPNDKIDLNVDLFISFKAGKEVNHGNVLDIAGTGSVPRNIKFSEEPPDGYCFVLFMVDPDYPSRLRPDGKEYIHWVVSGIKTKELIKGTQKNCVTILPYVGPSIKKGTGLHRISFIISLIKEEDKDNITGLPHYKGEKYITRVKFNNYESVHNIAQINNMKIVGYNWCQIE | soluble
* MAKYFDIDDILIEEEFVPVLFHKTANGVTIDPSAETNCVSLLIPSAKAEQGSKVELPFWLAHELHLRQAVTINLPPCFDQKTRLEVQADAAYVDLRSRCPYFYEFGCKIEPLVTDRTLGILLSTAFKIRYKEALTKVYTAAHITASKYLSFLTKEETNLYEAAHLSMTAFKKWRTGGPRFQRASILGRKRKDSN | soluble
* MSEQFVTISQHVRNPQEAAALFGVHDIHLKRIEEELGVSIVTRGETVNVSGTPQQVQLVNELLRHLLIVIRKGAAVSERDVLYAIQLAKKGALDGLVQLYDEEITKNAKGKPIRVKTLGQRYYVAAIEQYDLTFGIGPAGTGKTYLAVVMAVKALKNGSVKRIILTRPAVEAGESLGFLPGDLKEKVDPYLRPLYDALNDVLGAEYTQRLIERGTIEIAPLAYMRGRTLEDAFVILDEAQNTTPAQMKMFLTRLGFGSKMVITGDISQVDLPKGVESGLSVAKRILASIGGIAFVFLEQSDVVRHPLVAKIIDAYDEAGL | not soluble
* MGSDKIHHHHHHMKPVVVMTQTNDMQSDLVSIIHKPFIDIKPLNFDIHLLNQRYDWLIFSSKNAVKFFYKYLKGINVDNIAVIGSKTAQYCESLGIRVDFMPNDFSQEGFLKSFNQTNQKILLPSSELARPLLLAALSKDNEVVKIDLYTSVPNKQNIQDVKEMIEHQQIDALTFSSSSAVRYYFNEGFVPKFKSYFAIGEQTARTIKTYQQPVTIAEIQTLESLIEKILESRG | not soluble
* GSMDALNSKEQQEFQKVVEQKQMKDFMRLYSNLVERCFTDCVNDFTTSKLTNKEQTCIMKCSEKFLKHSERVGQRFQEQNAALGQGLGR | soluble
* SLLIVYNEYLIHIYHSFQWAELQCETDSCIKMLLVADPQILGNTFDTKLYWPLANFDSDRHLKRTYKSVVQHAAPDVICFLGDLMDEGSVANDDQFAAYFTRFVNIFSQPTANTIMFYIPGDNDIGGEGLETIKSDRVLRFKQYFNEQDELTIDPMLRILNVNRISMTLPMNSAPSTEEPQPYTVLLSHMPILRWSDPFTYKVIDDFQPNVIFSAHEHKSRHVKTHRNQLTQGAPFEPLNTERSNRHEVVEFDLNYLKDTRELLEFIVPTCSYRMGEMKIGYGYAMFDGDKLRYTVLWTSQRFYQ | soluble
* MGSDKIHHHHHHMSVEQTYSWLRKAGSIDDLAHYIIPLFSGAEKKNWKGILGHLQHHGMFKNIKEGIQTVSKLKEKGFYGHIQKEEQYLKNKWQGPDVPIVTLPVDERNRRIRLEFGSKSGLAFQDKMFLFLSSDLDFGSVSALMTHEYHHVCRLGHLTKEEKDVTLLDTIIMEGLAEYAVYERFGRSQTAEWTTWYTPEQLQALYEKKIAPHRDIKRDNRLFPQLLFGKGYQPKMLGYAVGFNIVKKYLTASKASTADGLSIPAETFLDAML | not soluble
* MFTIKTDDLTHPAVQALVAYHISGMLQQSPPESSHALDVQKLRNPTVTFWSVWEGEQLAGIGALKLLDDKHGELKSMRTAPNYLRRGVASLILRHILQVAQDRCLHRLSLETGTQAGFTACHQLYLKHGFADCEPFADYRLDPHSRFLSLTLCENNELP | soluble
* MGSDKIHHHHHHACILFVCFLYTNNEIGVTSSKLEADIRSSQKIKDDWTVDGSVSSTMAAYISYPQDLSDHSFSVYVNRPGLSFGYFFRGGGTLSGIQRGIVEFTVEGYNERAFISMNQQQVQQLEIDDGNTIQVVDIDRNKPFAIVLPINAGNITFYDVNRNTVEYWNNPL | not soluble
* MGSDKIHHHHHHMAPLRIRYQTHEFGVLDIHIRTLRDNQEFEDINGEAEKLGISSATWPLFGIVWPSEQVLSHHMLDYPIEGKRILEVGCGIGLASLVLNHRLADITATDYHPETGSFLSQNVALNKGRTIPFVRTGWADETSKLGLFDLIIGSDLLYEQEHADLLSQFIEQHAKPICDVILVDPGRGNHAKFSKRMVTLGYEHSQHKPIHTEFLLAPFGGQILSYSRTKS | not soluble
* MSLAEPRNGESAGADAVLTKAIEDALGNGTGSVTVDLPQAEGKAKAGDLVTLRYTMTTADGALVATTEESVAADKGRPRSVAFTARSRYRPEEIVAGGEGNLPGVAEAVIGMAPGEKKHLSLSADKAFGARDPQRVVTMATVKSLPRTVAIPAADYVKNFGALPVVGKELPVVPYFPARVIEVTEQQAKLQLLARDGERFTESFGAVETKVDGESVKIRLVPTIGAPFEFRGARGTITAAGEENFTVDFNHPLADRSVVLDLEVVSLTKGEKLAAISVPWLENHDQGLEKAKQEEKPAVLVLYADWCQWCKKLFGETAEDPRIKAVSDRFVWIRVNSDKEKAYKEQYGQDGYPLIVLLDRQGKVAKKLDGFRDAAGLREELNALLEGHHHHHH | soluble
* MNVAKNRKEKIAGLFLMCPGSGLDMNFVNTIQPGALQYLMKKGSINYPASKNGYPALLTVECLEEFLNTDISKTSPKVIDIQCPVLTVHGIEDNIVPVENSKKLMQRMASTYKDFHRIPGVDHNFDLDEEVLKRLGQLMDVIRENESKKLKAKI | not soluble
* STSTFQTRRRRLKKVEEEENAATLQLGQEFQLKQINHQGEEEELIALNLSEARLVIKEALVERRRAFKRSQKKTREKELESIDVLLEQTTGGNNKDLKNTMQYLTNFSRFRDQETVGAVIQLLKSTGLHPFEVAQLGSLACDTADEAKTLIPSLNNKISDDELERILKELSNLETLY | soluble
